Below: a set of entries, each annotated with reported z-score.
assay: mitochondrial membrane potential change in A549 cells, profiling panel, cell-based, JC-1 fluorescence, basal, 24 h, 100 nL (AID 1138); details: higher = more signal;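 further: A549 lung adenocarcinoma cells under basal conditions with no added stimulus; test concentration not given here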
Output: the number by itself.

Answered examples (5):
[
  {
    "compound": "COC(=O)NCC=Cc1nc(CCCO)co1",
    "z-score": -0.223
  },
  {
    "compound": "COC(=O)[C@H](C)NC(=O)CCC1CC(OC(=O)NCCc2ccc(F)cc2)CC2(CCCC(COC(=O)NCCC(C)C)O2)O1 (stereo not given in full)",
    "z-score": 2.09
  },
  {
    "compound": "CO[C@H]1COC(=O)CC=C[C@@H](C)[C@H](OC)COC(=O)[C@@H]2CCCN2C(=O)CC=C[C@@H]1C",
    "z-score": 0.0624
  },
  {
    "compound": "CCN1C(=O)[C@@H]2[C@H]3C(=CC[C@@H]2C1=O)C1(OCCCO1)[C@H]1O[C@H]1[C@H]3O",
    "z-score": -2.41
  },
  {
    "compound": "CC(CCN1CCCCc2nc(C)c(C)cc21)=NO[C@H](C)c1cn([C@H](CO)Cc2ccccc2)nn1",
    "z-score": 0.0726
  }
]

Recorded z-score of C[C@@H]1CC[C@H]2C(=O)O[C@@H](Cc3ccccc3)CN2[C@H]1c1ccc(Br)cc1 , please.
0.362

Recorded z-score of CC(C)(C)N1C(=O)[C@H]2[C@H]3[C@H](O)[C@H](O)CC(=O)[C@H]3CC[C@H]2C1=O , please.
-0.714

Recorded z-score of COC(=O)[C@H](C)NC(=O)CCC1CC(OC(=O)NCc2ccc3c(c2)OCO3)CC2(CCCC(COC(=O)NCC3CCCCC3)O2)O1 (stereo not given in full) , please.
-0.00341

---

Below: a set of entries, each annotated with reported composite z-score.
biological target: Pro-neuregulin-1, membrane-bound isoform (Homo sapiens) (UniProt Q02297); experiment: NRG1 binders on small-molecule microarrays, primary screen, psychiatric disease protein project, biochemical, small-molecule microarray, fluorescence 635/667 (AID 1075); conditions: NRG1 binding, 635 nm fluorescence, higher = more signal;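 further: score combines 667 nm spot fluorescence with signal to noise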
Sequence (Q02297 whole entry, looked up, canonical isoform): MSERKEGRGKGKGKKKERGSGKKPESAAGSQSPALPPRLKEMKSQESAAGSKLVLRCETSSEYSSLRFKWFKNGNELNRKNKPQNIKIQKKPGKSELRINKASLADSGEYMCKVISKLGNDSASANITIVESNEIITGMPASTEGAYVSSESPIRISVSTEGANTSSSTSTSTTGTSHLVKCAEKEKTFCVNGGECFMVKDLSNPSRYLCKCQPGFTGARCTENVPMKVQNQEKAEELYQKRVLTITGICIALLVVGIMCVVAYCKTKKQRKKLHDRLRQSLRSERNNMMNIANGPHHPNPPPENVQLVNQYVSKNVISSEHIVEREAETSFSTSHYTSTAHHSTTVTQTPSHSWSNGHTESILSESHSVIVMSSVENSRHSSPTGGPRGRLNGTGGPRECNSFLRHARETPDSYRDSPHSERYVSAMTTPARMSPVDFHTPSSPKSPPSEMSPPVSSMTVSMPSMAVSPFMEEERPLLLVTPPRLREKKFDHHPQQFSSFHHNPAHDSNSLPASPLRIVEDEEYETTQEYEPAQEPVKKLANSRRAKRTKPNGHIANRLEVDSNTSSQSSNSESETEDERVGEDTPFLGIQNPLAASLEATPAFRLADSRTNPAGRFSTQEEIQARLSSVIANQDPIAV
Output: the number by itself.

Answered examples (3):
[
  {
    "smilesCode": "CC(=O)OC[C@H]1O[C@H](C#Cc2ccccc2)C=C[C@@H]1OC(C)=O",
    "reported": 0.232
  },
  {
    "smilesCode": "O=c1n(Cc2cc3c(cc2Cl)OCO3)c(=O)n2n1CC[C@@H]1C(=NOC[C@@H](O)COCc3ccco3)[C@H]3O[C@H]3[C@@H](O)[C@@H]12",
    "reported": -0.112
  },
  {
    "smilesCode": "C[C@@H]1CC[C@H]2C(=O)O[C@@H](COc3ccc(C(C)(C)C)cc3)CN2[C@@H]1c1ccc(Br)cc1",
    "reported": -0.0758
  }
]

Recorded composite z-score of C#CCCCON=C1C[C@@H](O)[C@@H](O)[C@@H]2[C@@H]3C(=O)N(c4ccc(F)cc4F)C(=O)[C@@H]3CC[C@H]12 , please.
0.454

---

tested on: PRMT1 (protein arginine N-methyltransferase 1); test: PRMT1 binders on small-molecule microarrays, primary screen, biochemical, small-molecule microarray, 635 nm fluorescence (AID 1088); conditions: small-molecule microarray binding, higher = more signal;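 further: binding of Prmt1 protein to compounds spotted on small-molecule microarray slides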
assayMetric: composite z-score
Output: the number by itself.

Answered examples (3):
[
  {
    "compound": "COC(=O)[C@@H]1CC[C@H](C)[C@@H](c2ccc(C)cc2)N1C(=O)c1ccc(C=NO[C@H](C)c2cn([C@@H]3COC[C@H]3O)nn2)cc1",
    "systemUnderTest": "PRMT1 (protein arginine N-methyltransferase 1)",
    "composite z-score": 1.12
  },
  {
    "compound": "CCOC(=O)[C@H](CC(C)C)NC(=O)CCC1CC(OC(=O)NCCc2ccc(F)cc2)CC2(CCCC(COC(=O)NCC3CCCCC3)O2)O1 (stereo not given in full)",
    "systemUnderTest": "PRMT1 (protein arginine N-methyltransferase 1)",
    "composite z-score": 0.49
  },
  {
    "compound": "CCOC(=O)NN=C1C[C@@H](O)[C@@H](O)[C@@H]2[C@@H]3C(=O)N(c4cccc(Oc5ccccc5)c4)C(=O)[C@@H]3CC[C@H]12",
    "systemUnderTest": "PRMT1 (protein arginine N-methyltransferase 1)",
    "composite z-score": 0.626
  }
]

Recorded composite z-score of CC(CCN1CCCCc2nc(C)c(C)cc21)=NO[C@@H](C)c1cn([C@H](CO)Cc2ccccc2)nn1 , please.
1.03

---

biological target: Homeobox protein Hox-A13 (Mus musculus) (UniProt Q62424); assay: inhibitors of HoxA13-DNA binding, primary screen, biochemical, fluorescence polarization, labeled oligonucleotide (AID 1185); settings: 15 min, higher = more signal, called active from +8 up or from −8 down
Sequence (Q62424 whole entry, looked up): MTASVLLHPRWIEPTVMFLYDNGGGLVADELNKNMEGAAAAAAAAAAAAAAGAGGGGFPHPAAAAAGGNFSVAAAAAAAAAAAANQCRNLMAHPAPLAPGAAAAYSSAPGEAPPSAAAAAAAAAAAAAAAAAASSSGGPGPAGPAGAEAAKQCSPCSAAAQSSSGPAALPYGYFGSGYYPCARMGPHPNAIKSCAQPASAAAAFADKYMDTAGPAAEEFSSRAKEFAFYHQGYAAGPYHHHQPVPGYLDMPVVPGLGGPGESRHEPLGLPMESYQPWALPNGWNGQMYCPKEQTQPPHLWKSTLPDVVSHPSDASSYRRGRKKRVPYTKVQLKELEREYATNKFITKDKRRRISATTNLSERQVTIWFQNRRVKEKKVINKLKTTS
Please enter t where z-score is greater than or equal to -2, and f where it is lower.

[
  {
    "compound": "CO[C@@H]1COC(=O)[C@@H]2CCCN2C(=O)[C@@H](C)COC(=O)CC=C[C@H]1C",
    "cat": "t"
  },
  {
    "compound": "O=C1[C@H]2[C@H]3[C@H](O)[C@H](O)CC(=NOC[C@@H](O)COCc4ccco4)[C@H]3CC[C@H]2C(=O)N1C[C@@H]1CCCO1",
    "cat": "t"
  },
  {
    "compound": "CCOC(=O)[C@H](Cc1ccccc1)NC(=O)CCC1CC(OC(=O)NCCc2ccc(F)cc2)CC2(CCCC(COC(=O)NCCCN3CCCC3=O)O2)O1 (stereo not given in full)",
    "cat": "f"
  }
]

Evaluate COc1cccc([C@H]2Oc3ccc(OC)cc3C(=NOC[C@@H](C)[C@H](OCc3ccccc3)C(C)C)[C@@H]2O)c1 : z-score at minimum -2?
t

Evaluate CO[C@H]1COC(=O)[C@@H]2CCCN2C(=O)CC=C[C@@H](C)[C@H](OC)COC(=O)[C@@H](OCc2ccccc2)C=C[C@@H]1C : z-score at minimum -2?
t

Evaluate CCCCC#C[C@@H]1C=C[C@H](OC(C)=O)[C@@H](COC(C)=O)O1 : z-score at minimum -2?
f

Evaluate CC(=O)OC[C@H]1OC(ON=CC[C@@H]2C=C[C@H](OC(C)=O)[C@@H](COC(C)=O)O2)[C@H](OC(C)=O)[C@@H](OC(C)=O)[C@@H]1OC(C)=O (stereo not given in full) : z-score at minimum -2?
f

Evaluate CO[C@H]1COC(=O)[C@@H](C)COC(=O)[C@H](C)NC(=O)CC=C[C@H]1C : z-score at minimum -2?
t

---

biological target: Neurogenic locus notch homolog protein 2 (Homo sapiens) (UniProt Q04721); test: Notch2 binders on small-molecule microarrays, primary screen, biochemical, small-molecule microarray, 635 nm fluorescence, stem cell growth factors (AID 1073); conditions: Notch2 binding, higher = more signal
Sequence (Q04721 whole entry, looked up): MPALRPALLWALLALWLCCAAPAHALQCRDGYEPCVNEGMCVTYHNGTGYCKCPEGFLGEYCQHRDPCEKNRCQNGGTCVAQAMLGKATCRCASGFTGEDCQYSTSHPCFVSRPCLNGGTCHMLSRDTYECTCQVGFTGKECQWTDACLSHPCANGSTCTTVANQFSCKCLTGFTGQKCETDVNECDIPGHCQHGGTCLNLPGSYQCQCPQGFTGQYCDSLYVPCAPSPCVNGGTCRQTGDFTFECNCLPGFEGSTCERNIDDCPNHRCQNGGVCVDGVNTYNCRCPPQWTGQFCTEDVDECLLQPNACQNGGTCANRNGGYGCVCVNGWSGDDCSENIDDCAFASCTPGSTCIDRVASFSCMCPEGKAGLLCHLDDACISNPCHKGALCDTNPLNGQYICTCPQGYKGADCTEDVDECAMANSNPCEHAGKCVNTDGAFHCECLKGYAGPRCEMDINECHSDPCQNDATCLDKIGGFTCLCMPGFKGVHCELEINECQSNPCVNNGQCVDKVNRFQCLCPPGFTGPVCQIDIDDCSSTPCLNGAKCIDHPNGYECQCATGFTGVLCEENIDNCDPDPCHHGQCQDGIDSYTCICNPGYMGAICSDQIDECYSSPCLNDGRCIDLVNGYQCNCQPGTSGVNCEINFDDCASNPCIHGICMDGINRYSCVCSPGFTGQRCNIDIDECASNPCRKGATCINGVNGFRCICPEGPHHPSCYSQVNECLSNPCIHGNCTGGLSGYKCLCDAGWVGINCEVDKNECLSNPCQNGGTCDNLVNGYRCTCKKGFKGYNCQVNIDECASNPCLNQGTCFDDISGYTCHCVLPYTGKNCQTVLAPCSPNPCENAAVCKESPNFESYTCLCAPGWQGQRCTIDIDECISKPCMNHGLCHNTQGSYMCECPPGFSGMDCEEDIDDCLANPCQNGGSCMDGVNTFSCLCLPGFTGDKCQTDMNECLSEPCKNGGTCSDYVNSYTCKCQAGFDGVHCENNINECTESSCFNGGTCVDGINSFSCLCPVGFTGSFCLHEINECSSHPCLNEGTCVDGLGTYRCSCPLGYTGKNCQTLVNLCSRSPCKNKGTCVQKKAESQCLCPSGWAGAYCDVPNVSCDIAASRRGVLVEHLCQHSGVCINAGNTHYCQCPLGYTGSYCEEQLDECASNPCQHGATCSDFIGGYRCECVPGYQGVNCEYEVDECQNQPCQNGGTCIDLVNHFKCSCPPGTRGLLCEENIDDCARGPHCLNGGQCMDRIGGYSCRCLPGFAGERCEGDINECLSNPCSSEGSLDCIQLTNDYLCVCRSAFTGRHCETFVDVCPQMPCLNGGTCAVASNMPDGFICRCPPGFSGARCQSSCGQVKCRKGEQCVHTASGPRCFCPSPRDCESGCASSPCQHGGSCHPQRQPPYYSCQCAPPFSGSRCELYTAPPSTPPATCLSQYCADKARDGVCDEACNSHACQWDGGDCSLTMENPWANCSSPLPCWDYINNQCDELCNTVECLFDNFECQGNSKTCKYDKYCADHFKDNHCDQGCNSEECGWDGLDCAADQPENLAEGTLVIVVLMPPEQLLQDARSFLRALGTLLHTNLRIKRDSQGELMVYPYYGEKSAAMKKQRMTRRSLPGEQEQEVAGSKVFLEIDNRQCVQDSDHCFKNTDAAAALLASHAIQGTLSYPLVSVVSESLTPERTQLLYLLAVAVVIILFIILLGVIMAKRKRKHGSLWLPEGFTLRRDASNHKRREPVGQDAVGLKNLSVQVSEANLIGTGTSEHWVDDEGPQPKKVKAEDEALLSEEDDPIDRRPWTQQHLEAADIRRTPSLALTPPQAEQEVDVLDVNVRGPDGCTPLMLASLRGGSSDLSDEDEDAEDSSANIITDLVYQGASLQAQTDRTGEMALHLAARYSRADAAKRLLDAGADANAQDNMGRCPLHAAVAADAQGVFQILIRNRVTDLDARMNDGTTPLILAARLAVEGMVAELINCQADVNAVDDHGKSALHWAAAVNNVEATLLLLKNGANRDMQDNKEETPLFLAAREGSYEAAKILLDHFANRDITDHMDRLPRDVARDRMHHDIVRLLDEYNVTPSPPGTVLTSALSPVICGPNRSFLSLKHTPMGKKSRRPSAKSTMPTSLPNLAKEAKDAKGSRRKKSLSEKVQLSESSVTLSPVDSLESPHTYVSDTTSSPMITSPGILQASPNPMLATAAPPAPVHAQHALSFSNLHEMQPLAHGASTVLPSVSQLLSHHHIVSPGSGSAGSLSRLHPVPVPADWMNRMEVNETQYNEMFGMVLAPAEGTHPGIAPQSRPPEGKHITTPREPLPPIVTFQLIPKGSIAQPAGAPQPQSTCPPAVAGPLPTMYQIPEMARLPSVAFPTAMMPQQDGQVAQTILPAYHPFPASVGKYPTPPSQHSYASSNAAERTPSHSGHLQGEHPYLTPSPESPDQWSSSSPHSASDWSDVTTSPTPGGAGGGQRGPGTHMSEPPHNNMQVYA
Please enter label 1 where composite z-score is greater than or equal to 0.2, and label 0 where it is lower.

[
  {
    "molecule": "CO[C@@H]1COC(=O)[C@@H]2CCCN2C(=O)[C@@H](C)COC(=O)CC=C[C@H]1C",
    "systemUnderTest": "Neurogenic locus notch homolog protein 2 (Homo sapiens) (UniProt Q04721)",
    "cat": "label 1"
  }
]

Evaluate CC(C)=CCCC(C)=CCON=C1C[C@@H](O)[C@@H](O)[C@@H]2[C@@H]3C(=O)N(C(C)(C)C)C(=O)[C@@H]3CC[C@H]12 : composite z-score at minimum 0.2?
label 1

Evaluate CCOC(=O)[C@H](CC(C)C)NC(=O)CCC1CC(OC(=O)NCc2cccc3ccccc23)CC2(CCCC(COC(=O)NCc3ccncc3)O2)O1 (stereo partly specified) : composite z-score at minimum 0.2?
label 1

Evaluate CCc1cc2c(nc1CC)CCN(CCC(C)=NOC[C@H]1O[C@H](c3ccccc3)C=C[C@@H]1Oc1ccc(OC)cc1)C2 : composite z-score at minimum 0.2?
label 0

Evaluate CC(CCN1CCCCc2nc(C)c(C)cc21)=NOC[C@@H](C)[C@H](OCc1ccccc1)C(C)C : composite z-score at minimum 0.2?
label 0

---

Below: a set of entries, each annotated with reported composite z-score.
target: Follistatin (Homo sapiens) (UniProt P19883); test: follistatin binders on small-molecule microarrays, primary screen, biochemical, small-molecule microarray, 635/667 nm fluorescence (AID 1132); settings: FST binding, 635 nm fluorescence, higher = more signal
Sequence (P19883 whole entry, looked up): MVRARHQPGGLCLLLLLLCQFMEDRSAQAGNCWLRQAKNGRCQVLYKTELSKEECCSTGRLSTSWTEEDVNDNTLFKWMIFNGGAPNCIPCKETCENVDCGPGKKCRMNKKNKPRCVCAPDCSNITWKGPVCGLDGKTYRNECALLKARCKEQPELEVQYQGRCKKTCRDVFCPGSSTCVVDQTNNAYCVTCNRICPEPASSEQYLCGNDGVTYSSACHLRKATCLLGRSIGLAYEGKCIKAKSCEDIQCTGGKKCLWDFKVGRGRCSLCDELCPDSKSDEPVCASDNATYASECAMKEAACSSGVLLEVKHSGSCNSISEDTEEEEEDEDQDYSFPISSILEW
Output: the number by itself.

Answered examples (3):
[
  {
    "smilesCode": "C=CC[C@@H]1C=C[C@H](ON=C(C)CCN2CCc3nc(-c4ccccc4)c(-c4ccccc4)cc3C2)[C@@H](CO)O1",
    "systemUnderTest": "Follistatin (Homo sapiens) (UniProt P19883)",
    "composite z-score": 0.787
  },
  {
    "smilesCode": "CC(C)=CCCC(C)=CCON=C1C[C@@H](O)[C@@H](O)[C@@H]2[C@@H]3C(=O)N(c4ccc(F)cc4F)C(=O)[C@@H]3CC[C@@H]12",
    "systemUnderTest": "Follistatin (Homo sapiens) (UniProt P19883)",
    "composite z-score": 1.04
  },
  {
    "smilesCode": "C[C@H]1CC[C@H]2C(=O)O[C@H](COc3ccc(C(C)(C)C)cc3)CN2[C@@H]1c1ccc(Br)cc1",
    "systemUnderTest": "Follistatin (Homo sapiens) (UniProt P19883)",
    "composite z-score": 0.0469
  }
]

Proceed to the following item.
Recorded composite z-score of O=C1C[C@@H](O)[C@@H](O)[C@@H]2[C@@H]3C(=O)N(Cc4ccc5c(c4)OCO5)C(=O)[C@@H]3CC[C@H]12 , please.
0.243
